- assay-name: AUC in ICR mouse at 2 mg/kg, iv by LC-MS/MS analysis
- Type: ADME, organism-based
- details: in vivo
Below, each entry is listed with its recorded AUC.
A complete answer gives the number and then names the unit.

{"smiles-text": "O=C(O)c1ccc2nc(CN3CCC(c4cccc(OCc5ccc(C6COC6)cc5F)n4)CC3)n(C[C@@H]3CCO3)c2c1", "data-value": "1670 ng·h/mL"}

For the next question, use this compound.
Exam item: Return reported AUC; argument: N#Cc1ccc(COc2cccc(C3CCN(Cc4nc5ccc(C(=O)O)cc5n4C[C@@H]4CCO4)CC3)n2)c(F)c1
Marked response: 1670 ng·h/mL
